# reported DR/DR LNA; entries follow
Assay: Probe fluorescence ratio response to linolenic acid relative to ADIFAB2
Format: binding
Conditions: response relative to ADIFAB2
property-label: DR/DR LNA

1) 106V, 72A (protein, listed as Rattus norvegicus, PEPTIDE (1)...(131) wild-type rat intestinal fatty acid binding protein) AFDGTWKVDRNENYEKFMEKMGINVVKRKLGAHDNLKLTITQEGNKFTVKESSNFRNIDVVFELGVDFAYSAADGTELTGTWTMEGNKLVGKFKRVDNGKELIAVVEISGNELIQTYTYEGVEAKRIFKKE | 0.592
2) 115N, 72A (protein, listed as Rattus norvegicus, PEPTIDE (1)...(131) wild-type rat intestinal fatty acid binding protein) AFDGTWKVDRNENYEKFMEKMGINVVKRKLGAHDNLKLTITQEGNKFTVKESSNFRNIDVVFELGVDFAYSAADGTELTGTWTMEGNKLVGKFKRVDNGKELIAVREISGNELINTYTYEGVEAKRIFKKE | 0.726
3) 55Y, 72A (protein, listed as Rattus norvegicus, PEPTIDE (1)...(131) wild-type rat intestinal fatty acid binding protein) AFDGTWKVDRNENYEKFMEKMGINVVKRKLGAHDNLKLTITQEGNKFTVKESSNYRNIDVVFELGVDFAYSAADGTELTGTWTMEGNKLVGKFKRVDNGKELIAVREISGNELIQTYTYEGVEAKRIFKKE | 0.335
4) 11Y1, L72A (protein, listed as Rattus norvegicus, PEPTIDE (1)...(131) wild-type rat intestinal fatty acid binding protein) AFDGTWKVDRYENYEKFMEKMGINVVKRKLGAHDNLKLTITQEGNKFTVKESSNFRNIDVVFELGVDFAYSAADGTELTGTWTMEGNKLVGKFKRVDNGKELIAVREISGNELIQTYTYEGVEAKRIFKKE | 0.33
5) 73P, 72A (protein, listed as Rattus norvegicus, PEPTIDE (1)...(131) wild-type rat intestinal fatty acid binding protein) AFDGTWKVDRNENYEKFMEKMGINVVKRKLGAHDNLKLTITQEGNKFTVKESSNFRNIDVVFELGVDFAYSAPDGTELTGTWTMEGNKLVGKFKRVDNGKELIAVREISGNELIQTYTYEGVEAKRIFKKE | 0.41
6) 106T, 72A (protein, listed as Rattus norvegicus, PEPTIDE (1)...(131) wild-type rat intestinal fatty acid binding protein) AFDGTWKVDRNENYEKFMEKMGINVVKRKLGAHDNLKLTITQEGNKFTVKESSNFRNIDVVFELGVDFAYSAADGTELTGTWTMEGNKLVGKFKRVDNGKELIAVTEISGNELIQTYTYEGVEAKRIFKKE | 0.367

Source: patent US20060257938A1
